B1: WEE1 (parent)
chain: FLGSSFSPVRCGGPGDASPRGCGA

- Variants of: B1
- Test protocol: protein stability index of a GFP-peptide fusion (GPS, HEK-293T) (PSI 1-6); higher = more stable;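 note: lentivirally expressed fusions sorted by FACS into six bins by GFP to DsRed ratio, PSI derived from sequencing read proportions per bin multiplied by bin number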
- Assay conditions: c terminus: a fixed tail appended
Result type: protein stability index

Entry sequence	Result type	Obs value
FLGSSFSPVRCGGPLDASPRGCGA [G15L]	protein stability index	2.68

I would be grateful if you could provide protein stability index for each of the following entries.
1. FLGSSFSPVRCGGPGDASPVGCGA [R20V]
2. FLGSSFSPVRCGGPGDASRRGCGA [P19R]
3. FLGSSFSPVRCGRPGDASPRGCGA [G13R]

1: 1.79; 2: 2.38; 3: 1.87
